# Tgt: Estrogen receptor (Rattus norvegicus) (UniProt P06211+Q62986)
# Method: Relative binding affinity (RBA) for estrogen receptor of rat uterine cytosol at 25 degree C relative to Estradiol
# Format: protein assay
Measured metric: RBA

Sample answers from the record:
C[C@]12CC[C@@H]3c4ccc(O)cc4CC[C@H]3[C@@H]1CC[C@@]2(O)/C=C/Cl = 199
C[C@]12CC[C@@H]3c4ccc(O)cc4CC[C@H]3[C@@H]1CC[C@@]2(O)/C=C/Br = 661
C[C@]12CC[C@@H]3c4ccc(O)cc4CC[C@H]3[C@@H]1CC[C@@]2(O)/C=C/I = 776

[I] C[C@]12CC[C@@H]3c4ccc(O)cc4CC[C@H]3[C@@H]1CC[C@@]2(O)/C=C\Br
[II] C[C@]12CC[C@@H]3c4ccc(O)cc4CC[C@H]3[C@@H]1CC[C@@]2(O)/C=C\Cl
Asked: Lower RBA: I or II ? State the label of the item chosen.
Given back: I
